Assignment: determine reported Cas9 with SSAP activity (normalized) for the given molecules.
Test system: gene editing with Cas9
Test: Screen of 322 new SSAP proteins, gene editing activity with Cas9 (Table 5)
Assay type: cell-based
Conditions: normalized
Provide a numeric answer; units are not to be included.

I'd like to know its Cas9 with SSAP activity (normalized). The molecule in question is SSAP_304: SEQ ID NO: 473; Desulfobacteraceae bacterium (protein, listed as Desulfobacteraceae bacterium) ATPNTPTTTDAGDFLKKSEKSLKNYAVRKYDFTSFLKSAMIAINDNTTLSECLRTEAGKKSLFNAMRYAATTGLSLNPQEGKAALIGYKNKAGEMVLNYQIMKNGLIDLALSSGKVEFVTADLVRANDEFSIKKSASGDDYSFSPAIRDRGEVIGFVAALKLKGSATYVKWMSTEEVAEFRDKYSSMYKNRPDASPWTHSFNGMGIKTVMKALLRSVSISPDVDAAVKSDDYIEAEFTVHGTTADDAVTQLQTPSKPVKAEEGQGELL −0.447

Give its Cas9 with SSAP activity (normalized) value. Item: SSAP_292: SEQ ID NO: 461; Paenibacillus rhizosphaerae (protein, listed as Paenibacillus rhizosphaerae) SSKLVEINSKLDSFLDAQHKAMPKGFNKTRFLQNSMSVLRDIEGLEQCDPKSVALVMLKGAFLGLDFFNKECYPVVYAGKVEFQTDYKGEVKLVKKYSTKPVREIYAKLVRQGDDFSEEIVAGSQTINFKPLPFNNGEIVGAFAVVNYVDGTMQYDTMSTEEIEKIKVNFSRKSKKTNEYSKAWVVTPGEMYKKTVLRRLCKTIDLDFDTIEQAQAFEDAADMDFNQDSKPQQQSPLNPMVIDVEYEEVKEEQADAAEQE −0.752

What does the record list as Cas9 with SSAP activity (normalized) for SSAP_185: SEQ ID NO: 354; Pirellula sp. SH-Sr6A (protein, listed as Pirellula sp.) SEATKEAKPETAIAKKPNGIKDWLKSDALKTQIASVAPKHMAPERVMRIALNAVSRTPKLADCTPESFMRCLLDLSSWGLEPDGRHAHLIPYGTECTLVLDYKGLVTLAYRSGWVKKIHADVVFEGDIFVYSLGTVCQHIPWEFRDDANKPEHKGHFRAAYCVVTMADGIEKHEVMTASEIDAIKAKSRSGNSGPWKDHYTEMAKKTVYRRASKWLPLSPEQADAMERDDDRIIDAVSVAVTQRLSKAAMPLIGANETGDTE ? −0.708

Fill in: Cas9 with SSAP activity (normalized) of SSAP_225: SEQ ID NO: 394; Actinocrispum wychmicini (protein, listed as Actinocrispum wychmicini) SQTVTAAVAQRDNGAQALIAKYRTDFAQVLPSHLRPTTFVRLSQGLLRRNVKLAEAAERNPASFLAALLECARLGHDPGTDQFALVPFNDRKRNTVEVVGIEQYQGVIERMYRAGAVRSVKAEVVRAADPFEYAPDVMDRPGHKPNWFADRGELIGVYAYAEFFDGSTSRVVMMNRETVMAHKAKSRGATSEDSPWQAWEESMWLKTAVHELEKWVPTSSEDRRAARDGTADPAPVEVPRVADEVLDADLVEDDHADHPTATPTGDVR is ___ −0.252

Look up Cas9 with SSAP activity (normalized) for this molecule: SSAP_269: SEQ ID NO: 438; Candidatus Parcubacteria bacterium (protein, Candidatus Parcubacteria bacterium) TEYKRPQQPEQTKMLSAKLNQAGAPNKVSSFDVQLRDWFKKHSRKMQTLAGSKEEANKIITSLIFVAQRNPKLMTCTMESIGECLMQSAQLKLYPGPLQECAYVPFGNRATFMPQYQGLCKLAYNSGVVRSIATEVVYANDLFEFELGTNAYLRHVPTLSDNRGERIAAWCVVKTTHGEVIIVKPISFIEGIRKRSPAGNKKDSPWNTSDDDYDAMARKTVLKQALKTIPKSSDLAAAIQVDNAVESGSVDNVVTHIEPVTDPTPEETKE −2.190

I am curious: what Cas9 with SSAP activity (normalized) value has been reported for SSAP_117: SEQ ID NO: 286; Enterocloster bolteae (protein, listed as Enterocloster bolteae) GVNVKHELEQRAAGQGASVRLTKNMTIVDMVKALEPEIRRALPAVLTPERFTRMALSSINNTPELAECTPMSFIAALLNAAQLGLEPNTPLGQAYLIPYKNKGKLECQFQLGYKGLIDLAYRTGQVQIIQAQVVREFDSFEYQYGLDSKLVHKPGEGARGEITYVYGLFKLSNGGYGFEVSNKTEMDTFAARYSKSFGSKYSPWTEDYESMAKKTVIKRVLKYAPISSDFQKALSMDETIKTGIAVDMSEIRNECLPEEAGSEAA ? −1.192

GET /values?readout=Cas9 with SSAP activity (normalized)&item= SSAP_111: SEQ ID NO: 280; Siminovitchia fordii (protein, listed as Siminovitchia fordii) ATNQDIKNQLANKANGNKPASPANTIAAYLKKMGPEIEKALPKHMDADRLARIALTTIRTTPKLLECNISSLMGAVMQSAQLGLEPGLIGHCYIIPYGKEATFIIGYKGMIDLARRSGQIQNIYAHAVFENDEFDYALGLHPKLEHKPAGSNRGEIIGAYAVAHFKDGGYQFEYMAKEDIEKRKSRSAAARSKHSPWATDYEEMAKKTVIRHMWKYLPISVEIQQQAIQDEVVRKDVTSEPEFIDMEDMPEVEEGQSEESEQVEAPFD 0.129

Give the measured Cas9 with SSAP activity (normalized) of SSAP_230: SEQ ID NO: 399; Leuconostoc pseudomesenteroides (protein, Leuconostoc pseudomesenteroides) ANEITLAKQLSSDKVVEQFAATAGESAKSFAKEVALTISGNPALQHAKLGTVIVEATKASALGLSLLPTVGEAYLVPYKGDAQFQLGYKGIVQLAMRSGQMKSFGAESVYEGENPKWDKYNQELVTDGEETGKIIGYYAFFTLVNGFKMAAYWPKEKVEAHRDRFSKSKKGPWSTDFDAMAKKTVLKSILQYAPKSSEMKRALAEDTQAEYVQAGIQDVTPEPANIEAPIETANAPEINAQEESLFGELSDVDKETAPNPFAQNLGGDN . 0.321
